- procedure-text: Solubility of Compound 1 in solvents
- Type: physicochemical
- experimental-parameters: diisopropyl adipate, oil or lipid

>  <compound>
Cc1cccc(-n2ncc(C)c2-c2cc3cnccc3s2)n1 [Compound 1]

>  <unit-annotation>
mg/mL

>  <solubility>
50.5

$$$$

----------
- procedure-text: Solubility of Compound 1 in solvents
- Assay type: physicochemical
- experimental-parameters: phosphate buffer, pH 6.5, aqueous buffer

>  <smiles-repr>
Cc1cccc(-n2ncc(C)c2-c2cc3cnccc3s2)n1

>  <solubility [µg/mL]>
20

$$$$

----------
- procedure-text: Solubility of Compound 1 in solvents
- Format: physicochemical
- experimental-parameters: sodium citrate buffer, pH 4, aqueous buffer; Sod.Citrate buffer (pH4)

>  <compound>
Cc1cccc(-n2ncc(C)c2-c2cc3cnccc3s2)n1 [Compound 1]

>  <solubility, µg/mL>
290

$$$$
